- System: AMARE (redroot pigweed)
- protocol.notes: Pre-plant incorporated (PPI) herbicidal activity, warm season
- Type: in vivo, Amaranthus retroflexus
- protocol.conditions: pre-plant incorporated; GR80 = lowest tested rate with 80% or greater inhibition; approx. 14 days after treating; 30/21° C.
observed.property: PPI activity (GR80) AMARE (g/ha)

smiles.record	measured.value
C=C(Br)CC(F)(F)S(=O)(=O)c1ncn(C(=O)N(CC)CC)n1	100
C=C(C)CC(F)(F)S(=O)(=O)c1ncn(C(=O)N(CC)CC)n1	300
CCN(CC)C(=O)n1cnc(S(=O)(=O)C(F)(F)SCCOC)n1	100
CCN(CC)C(=O)n1cnc(S(=O)(=O)C(F)(F)C(=O)c2ccccc2)n1	100
CCN(CC)C(=O)n1cnc(S(=O)(=O)C(F)(F)C(F)F)n1	10
CCSC(F)(F)S(=O)(=O)c1ncn(C(=O)N(CC)CC)n1	100
C=CCC(F)(F)S(=O)(=O)c1ncn(C(=O)N(CC)CC)n1	10

* * *

- Tested on: SASKR (russian thistle)
- protocol.notes: Pre-emergence herbicidal activity, cool season
- Type: in vivo, Salsola kali
- protocol.conditions: lowest tested rate with 80% or greater inhibition; rates 300, 100, 30, 10 g/ha; about 14 days

compound	Pre-emergence activity GR80, SASKR
CN(Cc1ccccc1)C(=O)n1cnc(S(=O)(=O)C(F)(F)C(F)(F)Br)n1 [Example 80]	[empty]
CCSC(F)(F)S(=O)(=O)c1ncn(C(=O)N(C)c2ccccc2)n1 [Example 50]	[empty]
CCN(CC)C(=O)n1cnc(S(=O)(=O)C(F)(F)SCCOC(C)=O)n1 [Example 21]	[empty]

* * *

# Pre-emergence activity GR80, LAMPU listing for each entry below
- Tested on: LAMPU (purple deadnettle)
- protocol.notes: Pre-emergence herbicidal activity, cool season
- Format: in vivo, Lamium purpureum
- protocol.conditions: lowest tested rate with 80% or greater inhibition; rates 300, 100, 30, 10 g/ha; about 14 days

smiles.record	Pre-emergence activity GR80, LAMPU (g/ha)
COCCN(C)C(=O)n1cnc(S(=O)(=O)C(F)F)n1	300
CCN(CC)C(=O)n1cnc(S(=O)(=O)C(F)(F)C(=O)c2ccccc2)n1	100
COCCN(C)C(=O)n1cnc(S(=O)(=O)C(F)(F)Cl)n1	10
O=C(N1CCCC1)n1cnc(S(=O)(=O)C(F)(F)Cl)n1	100
CCN(CC)C(=O)n1cnc(S(=O)(=O)C(F)(F)SCCO)n1	300
CCCN(CC)C(=O)n1cnc(S(=O)(=O)C(F)(F)C(F)F)n1	30
CCSC(F)(F)S(=O)(=O)c1ncn(C(=O)N2CCCC2)n1	30
CN(C(=O)n1cnc(S(=O)(=O)C(F)F)n1)c1ccccc1	300
CN(C(=O)n1cnc(S(=O)(=O)C(F)(F)C(F)F)n1)c1ccccc1	300
CN(C)C(=O)n1cnc(S(=O)(=O)C(F)(F)Br)n1	300
CCN(CC)C(=S)n1cnc(S(=O)(=O)C(F)(F)Cl)n1	300
CON(C)C(=O)n1cnc(S(=O)(=O)C(F)F)n1	300

* * *

- Test system: DIGSA (large crabgrass)
- protocol.notes: Pre-emergence herbicidal activity, warm season
- Type: in vivo, Digitaria sanguinalis
- protocol.conditions: GR80 = lowest tested rate (300, 100, 30, 10 g/ha) with 80% or greater inhibition; approx. 14 days after treating; 30/21° C.
- From the text: Tables 5 to 8 summarize results of tests conducted as described below to determine the pre-emergence herbicidal activity, in the form of a GR80 value, of illustrative compounds of this invention. […] Compounds of the invention were typically applied at rates of 300, 100, 30, and 10 g/ha. […] Approximately 14 days after planting and treating, the plants were observed and herbicidal efficacy recorded as percent inhibition by comparison with untreated plants. […]

smiles.record	Pre-emergence activity (GR80) DIGSA, g/ha
CCN(CC)C(=O)n1cnc(S(=O)(=O)C(F)F)n1	30
CCCN(CC)C(=O)n1cnc(S(=O)(=O)C(F)F)n1	300
CCCN(CC)C(=O)n1cnc(S(=O)(=O)C(F)(F)SCC)n1	100
C=C(CC(F)(F)S(=O)(=O)c1ncn(C(=O)N(CC)CC)n1)C[Si](C)(C)C	100
CCSC(F)(F)S(=O)(=O)c1ncn(C(=O)N(CC)CC)n1	100
COCCN(C)C(=O)n1cnc(S(=O)(=O)C(F)(F)Cl)n1	300
CCCN(CC)C(=O)n1cnc(S(=O)(=O)C(F)(F)C(F)(F)Br)n1	300
CCN(CC)C(=O)n1cnc(S(=O)(=O)C(F)(F)C(F)F)n1	30
CCN(CC)C(=O)n1cnc(S(=O)(=O)C(F)(F)c2ccccc2)n1	100

* * *

- Tested on: PANMI (wild proso millet)
- protocol.notes: Pre-emergence herbicidal activity, warm season
- Type: in vivo, Panicum miliaceum
- protocol.conditions: GR80 = lowest tested rate (300, 100, 30, 10 g/ha) with 80% or greater inhibition; approx. 14 days after treating; 30/21° C.
- Description: Tables 5 to 8 summarize results of tests conducted as described below to determine the pre-emergence herbicidal activity, in the form of a GR80 value, of illustrative compounds of this invention. […] Compounds of the invention were typically applied at rates of 300, 100, 30, and 10 g/ha. […] Approximately 14 days after planting and treating, the plants were observed and herbicidal efficacy recorded as percent inhibition by comparison with untreated plants. […]
# Pre-emergence activity (GR80) PANMI listing for each entry below

molecule	assay.system	Pre-emergence activity (GR80) PANMI [g/ha]
CN(C(=O)n1cnc(S(=O)(=O)C(F)F)n1)c1ccccc1 [Example 27]	PANMI (wild proso millet)	100
CCCN(CC)C(=O)n1cnc(S(=O)(=O)C(F)(F)SCC)n1 [Example 51]	PANMI (wild proso millet)	100
CCN(CC)C(=O)n1cnc(S(=O)(=O)C(F)(F)C(F)(F)SC)n1 [Example 14]	PANMI (wild proso millet)	100
CCN(CC)C(=O)n1cnc(S(=O)(=O)C(F)(F)SCC(=O)OC)n1 [Example 11]	PANMI (wild proso millet)	300
C=CCC(F)(F)S(=O)(=O)c1ncn(C(=O)N(CC)CC)n1 [Example 17]	PANMI (wild proso millet)	100
CCCN(CC)C(=O)n1cnc(S(=O)(=O)C(F)(F)C(F)(F)Br)n1 [Example 75]	PANMI (wild proso millet)	100
CN(Cc1ccccc1)C(=O)n1cnc(S(=O)(=O)C(F)(F)Br)n1 [Example 44]	PANMI (wild proso millet)	300
CCSC(F)(F)S(=O)(=O)c1ncn(C(=O)N(CC)CC)n1 [Example 8]	PANMI (wild proso millet)	100
C=CCN(C)C(=O)n1cnc(S(=O)(=O)C(F)(F)SCC)n1 [Example 53]	PANMI (wild proso millet)	300
CCCN(CC)C(=O)n1cnc(S(=O)(=O)C(F)(F)C(F)F)n1 [Example 63]	PANMI (wild proso millet)	100
CCN(CC)C(=O)n1cnc(S(=O)(=O)C(F)(F)Br)n1 [Example 1]	PANMI (wild proso millet)	100
C#CCN(C)C(=O)n1cnc(S(=O)(=O)C(F)(F)Br)n1 [Example 42]	PANMI (wild proso millet)	300
CCN(CC)C(=O)n1cnc(S(=O)(=O)C(F)(F)C(F)(F)Br)n1 [Example 4]	PANMI (wild proso millet)	100
C=C(Br)CC(F)(F)S(=O)(=O)c1ncn(C(=O)N(CC)CC)n1 [Example 19]	PANMI (wild proso millet)	100
CCN(CC)C(=O)n1cnc(S(=O)(=O)C(F)(F)Cl)n1 [Example 3]	PANMI (wild proso millet)	30
CCN(CC)C(=S)n1cnc(S(=O)(=O)C(F)(F)Br)n1 [Example 46]	PANMI (wild proso millet)	300
O=C(N1CCCC1)n1cnc(S(=O)(=O)C(F)(F)C(F)F)n1 [Example 59]	PANMI (wild proso millet)	100
C=CCN(C)C(=O)n1cnc(S(=O)(=O)C(F)(F)C(F)F)n1 [Example 65]	PANMI (wild proso millet)	300
CCN(CC)C(=O)n1cnc(S(=O)(=O)C(F)(F)SCc2ccccc2)n1 [Example 10]	PANMI (wild proso millet)	300
CCN(CC)C(=O)n1cnc(S(=O)(=O)C(F)(F)F)n1 [Example 2]	PANMI (wild proso millet)	30

* * *

- Test system: SOLNI (black nightshade)
- protocol.notes: Pre-emergence herbicidal activity, warm season
- Format: in vivo, Solanum nigrum
- protocol.conditions: GR80 = lowest tested rate (300, 100, 30, 10 g/ha) with 80% or greater inhibition; approx. 14 days after treating; 30/21° C.
# Pre-emergence activity (GR80) SOLNI listing for each entry below

smiles.record	Pre-emergence activity (GR80) SOLNI (g/ha)
CCSC(F)(F)S(=O)(=O)c1ncn(C(=O)N(C)CCOC)n1	300
CCCN(CC)C(=O)n1cnc(S(=O)(=O)C(F)(F)C(F)F)n1	300
CCN(CC)C(=O)n1cnc(S(=O)(=O)C(F)(F)C(F)(F)Br)n1	300
COCCN(C)C(=O)n1cnc(S(=O)(=O)C(F)(F)C(F)(F)Br)n1	300
CCN(CC)C(=S)n1cnc(S(=O)(=O)C(F)(F)C(F)F)n1	300
C=C(CC(F)(F)S(=O)(=O)c1ncn(C(=O)N(CC)CC)n1)C[Si](C)(C)C	100
CCN(CC)C(=O)n1cnc(S(=O)(=O)C(F)(F)Br)n1	100
CCN(CC)C(=O)n1cnc(S(=O)(=O)C(F)F)n1	100
CN(Cc1ccccc1)C(=O)n1cnc(S(=O)(=O)C(F)(F)Br)n1	30
O=C(N1CCCC1)n1cnc(S(=O)(=O)C(F)(F)Cl)n1	300
C=C(Br)CC(F)(F)S(=O)(=O)c1ncn(C(=O)N(CC)CC)n1	300
CCSC(F)(F)S(=O)(=O)c1ncn(C(=O)N(CC)CC)n1	100
CN(Cc1ccccc1)C(=O)n1cnc(S(=O)(=O)C(F)(F)C(F)F)n1	300
CCN(CC)C(=O)n1cnc(S(=O)(=O)C(F)(F)C(F)(F)SC)n1	300
CN(C(=O)n1cnc(S(=O)(=O)C(F)F)n1)C1CCCCC1	300
CCN(CC)C(=O)n1cnc(S(=O)(=O)C(F)(F)Cl)n1	100
CCN(CC)C(=O)n1cnc(S(=O)(=O)C(F)(F)SCc2ccccc2)n1	300
